Hi there, I'd appreciate the recorded growth inhibition for every entry that follows.
- ASSAY TEXT: NCI Yeast Anticancer Drug Screen. Data for the mlh1 strain (AID 171);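 also: 0% = growth of vehicle-treated control cultures of the same strain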
- EXPERIMENTAL PARAMETERS: S. cerevisiae mlh1 strain growth inhibition; at 100.0 µM; active compounds read high
- Experimental: Growth inhibition of yeast strains with defined genetic alterations is measured as a screen for potential anti-cancer activity. Selected strains with alterations in DNA damage repair or cell cycle control were exposed to compounds and growth inhibition was measured relative to vehicle treated controls. The strain used in this assay is mlh1
This is part of a sample that, as a whole, favours compounds with a hit. Of some 79,000 tested, about 15% had one in any assay.
Give bare numbers, in %.

SMILES STR: CN(C)CCC(=O)c1c[nH]c2ccccc12
UNIT OF MEASUREMENT: %
growth inhibition: 37

For each of the molecules below, note its growth inhibition.
1. CNc1ccc2[nH]c3ccccc3c2c1
2. O=[N+]([O-])C(=C(NCc1ccccc1)NCc1ccccc1)C(Cl)=C(Cl)Cl
3. N=c1oc2ccccc2cc1-c1nc2ccccc2[nH]1
4. CN(C)c1ccc(/C=C/c2ccnc3ccc4ccccc4c23)cc1
5. O=c1oc(C(C(F)(F)F)C(F)(F)F)nc2ccccc12
6. Cc1ccc(S(=O)(=O)N/N=C/c2c(O)ccc3ccccc23)cc1
7. Cc1[nH]nc(C(F)(F)F)c1N=NN(C)C

**Result**
65
85
82
68
32
78
99

For each of the molecules below, note its growth inhibition.
1. C#CC1=CC(=O)C(OC)=CC1=O
2. O=C1C=CC(=Nc2ccc3c(c2)Cc2cc(Cl)ccc2-3)O1

**Result**
99
98

* * *

- ASSAY TEXT: NCI Yeast Anticancer Drug Screen. Data for the mgt1 strain (AID 153)
- EXPERIMENTAL PARAMETERS: S. cerevisiae mgt1 mutant growth inhibition; at 100.0 µM; active compounds read high
About 79,000 compounds went through this panel and 15% of them were active in at least one assay; those are over-represented in the sample as a whole. Active and inactive are the calls of the source. Cut-off read from the data, not from the text of the source: active = growth inhibition above about 70%; inactive = the rest.
VALUE TYPE: growth inhibition

MOLECULE: Nc1ccc2ncc(Nc3ccc(Cl)c(Cl)c3)nc2c1
growth inhibition: 97% (active)

For each of the molecules below, note its growth inhibition.
1. CN(C)CCn1c2ccccc2c2nc3cc4ccccc4cc3nc21
2. O=[N+]([O-])c1ccc2nnnn2c1
3. CCOC(=O)c1[nH]c2cccc3c2c1CC(Br)C3=O (stereo not given)
4. O=C(Nc1ccn(C2CC(O)C(COC(c3ccccc3)(c3ccccc3)c3ccccc3)O2)c(=O)n1)c1ccccc1 (stereo not given)
5. Cc1cc(N(CCOS(C)(=O)=O)CCOS(C)(=O)=O)ccc1C=O

**Result**
98% (active)
18% (inactive)
88% (active)
79% (active)
44% (inactive)

For each of the molecules below, note its growth inhibition.
1. O=S(=O)(O)CC[S][Sn]([S]CCS(=O)(=O)O)([c]1ccccc1)[c]1ccccc1
2. c1ccc(C2=NNC3c4ccccc4-c4ccccc4N3C2)cc1 (stereo not given)
3. C#CC1=CC(=O)C(OC)=CC1=O
4. CCN(CC)c1cccc(Nc2nc3ccccc3s2)c1

**Result**
98% (active)
47% (inactive)
99% (active)
7% (inactive)

* * *

- ASSAY TEXT: NCI Yeast Anticancer Drug Screen. Data for the wt2 strain (AID 169);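 also: 0% = growth of vehicle-treated yeast cultures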
- EXPERIMENTAL PARAMETERS: S. cerevisiae wt2 strain growth inhibition; at 1.2 µM; active compounds read high
This is part of a sample that, as a whole, favours compounds with a hit. Of some 79,000 tested, about 15% had one in any assay.
Hi there, I'd appreciate the recorded growth inhibition for every entry that follows.
One number for each entry, in %.

For each of the molecules below, note its growth inhibition.
1. Cn1c(COc2ccc(/C=N/NC(=O)CCC(=O)N/N=C/c3ccc(OCc4c[n+]5ccccc5n4C)cc3)cc2)c[n+]2ccccc12
2. O=S(=O)(O)CC[S][Sn]([S]CCS(=O)(=O)O)([c]1ccccc1)[c]1ccccc1
3. CC(C)(C(=O)NN)c1ccccc1
4. Cc1ccc(SSc2ccc(C)cc2[N+](=O)[O-])c([N+](=O)[O-])c1
5. COc1ccc(C(=O)NCCN(C)C)c2nc3ccccc3cc12

**Result**
4
-34
1
-15
-16

For each of the molecules below, note its growth inhibition.
1. O=C(Cc1ccccc1)c1ccc(O)cc1
2. N#C/C(=C1C=C/C(=N\O)C(Cl)=C\1)c1ccccc1
3. COc1ccc2nc(N/N=C/c3sccc3C)cc(C)c2c1
4. Cc1ccc2c(/C=C/c3ccc(N(C)C)cc3)ccnc2c1C
5. O=c1[nH]c(=O)n(CCCO)cc1F

**Result**
1. -10
2. -13
3. 18
4. -12
5. 3

For each of the molecules below, note its growth inhibition.
1. O=C(c1c(F)c(F)c(F)c(F)c1F)c1c(F)c(F)c(F)c(F)c1F
2. O=C1c2ccccc2C2CCC1c1ccccc12 (stereo not given)
3. CCC(C)C(=O)OCC(=O)c1ccc(-c2ccccc2)cc1 (stereo not given)

**Result**
16
-1
-1

For each of the molecules below, note its growth inhibition.
1. CCCC(=O)OC(OC(=O)CCC)c1ccc([N+](=O)[O-])o1
2. O=C(Nn1c(-c2ccccc2)nc2ccccc2c1=O)c1ccc(Cl)cc1
3. CN(C)N1C(=O)SCC(c2ccccc2)(c2ccccc2)C1=O
4. CCOc1nc(OCC)nc(-c2cccn2-c2ccccc2)n1
5. Nc1ccc2ncc(Nc3ccc(Cl)c(Cl)c3)nc2c1
6. COc1ccc(C(=O)OCCc2ccccc2)cc1
7. Cc1[nH]nc(C(F)(F)F)c1N=NN(C)C

**Result**
1: -3; 2: 5; 3: -2; 4: -3; 5: -15; 6: -6; 7: -1

For each of the molecules below, note its growth inhibition.
1. CCCCCCCCCC/C=C\CC(=O)O
2. Cc1cc(N(CCOS(C)(=O)=O)CCOS(C)(=O)=O)ccc1C=O
3. c1ccc(C2=NNC3c4ccccc4-c4ccccc4N3C2)cc1 (stereo not given)
4. CCN(CC)c1ccc(N=Nc2cc(S(=O)(=O)O)ccc2O)c(O)c1
5. Cc1c2ccncc2c(C)c2c1oc1ccccc12
6. O=c1[nH]cc(F)c(=O)[nH]1
7. Clc1ccc(C(c2ccc(Cl)cc2)N2CCNCC2)cc1
8. COc1cc(C(C)(C)C)cc(OC)c1C(O)(c1c(OC)cc(C(C)(C)C)cc1OC)c1c(OC)cc(C(C)(C)C)cc1OC

**Result**
1. -2
2. -45
3. -6
4. -13
5. 7
6. 1
7. -3
8. -17

For each of the molecules below, note its growth inhibition.
1. c1cncc(C(Nc2cccc3cccnc23)Nc2cccc3cccnc23)c1
2. CN(C)CCNC(=O)c1cccc2nc3c(ccc4ccccc43)nc12
3. CCOC(=O)c1[nH]c2cccc3c2c1CC(Br)C3=O (stereo not given)

**Result**
1. 0
2. -2
3. -28

For each of the molecules below, note its growth inhibition.
1. Cc1ccc2nc(N/N=C/c3ccc(C)s3)cc(C)c2c1
2. Cc1ccnc(NS(=O)(=O)c2ccc(Nc3c4ccccc4nc4ccccc34)cc2)n1
3. Cc1ccccc1C1=C(CC(=O)O)c2ccccc2CC1C (stereo not given)
4. CCCCCCC(CCl)c1sc(-c2csc(CCNC(=O)OC(C)(C)C)n2)nc1C(=O)OC (stereo not given)

**Result**
1: 9; 2: -10; 3: 5; 4: -3

* * *

- ASSAY TEXT: NCI Yeast Anticancer Drug Screen. Data for the bub3 strain (AID 167)
- EXPERIMENTAL PARAMETERS: S. cerevisiae bub3 mutant strain, at 5.0 µM (retest, dose inferred, filed as 0.5), active compounds read high
About 79,000 compounds went through this panel and 15% of them were active in at least one assay; those are over-represented in the sample as a whole.
VALUE TYPE: growth inhibition (%)
Numbers only, in %.

// known answers, use as guide
COMPOUND: O=C(CCC(=O)c1ccc(O)cc1)Oc1ccc(O)cc1
UNIT OF MEASUREMENT: %
growth inhibition: 18

COMPOUND: CCOC(=O)/C(O)=C(/C=N/C(=S)Nc1c(CC)cccc1CC)C(=O)OCC
UNIT OF MEASUREMENT: %
growth inhibition: -20

COMPOUND: O=C(Nc1ccn(C2CC(O)C(COC(c3ccccc3)(c3ccccc3)c3ccccc3)O2)c(=O)n1)c1ccccc1 (stereo unspecified)
UNIT OF MEASUREMENT: %
growth inhibition: 89

COMPOUND: CCCCCCCCCCCCCCCCCN
UNIT OF MEASUREMENT: %
growth inhibition: 54

COMPOUND: CC(C)(C(=O)NN)c1ccccc1
UNIT OF MEASUREMENT: %
growth inhibition: -14

COMPOUND: O=S(=O)(Oc1c(Cl)cc(Cl)cc1Cl)c1ccccc1
UNIT OF MEASUREMENT: %
growth inhibition: 0

COMPOUND: Cc1ccccc1C1=C(CC(=O)O)c2ccccc2CC1C (stereo unspecified)
UNIT OF MEASUREMENT: %
growth inhibition: -4

COMPOUND: CNC(=O)OCc1c(COC(=O)NC)c(C)n(-c2ccc(Cl)c(Cl)c2)c1C
UNIT OF MEASUREMENT: %
growth inhibition: 8

COMPOUND: O=C(c1c(F)c(F)c(F)c(F)c1F)c1c(F)c(F)c(F)c(F)c1F
UNIT OF MEASUREMENT: %
growth inhibition: 3

COMPOUND: O=[N+]([O-])c1ccc2nnnn2c1
UNIT OF MEASUREMENT: %
growth inhibition: 21

For each of the compounds below, note its growth inhibition.
1. Cc1ccnc(NS(=O)(=O)c2ccc(Nc3c4ccccc4nc4ccccc34)cc2)n1
2. C=Cc1c(C)c(O)cc2c1-c1ccc(O)c(C)c1CC2
3. CCCC(=O)OC(OC(=O)CCC)c1ccc([N+](=O)[O-])o1
4. CCCCCCC(CCl)c1sc(-c2csc(CCNC(=O)OC(C)(C)C)n2)nc1C(=O)OC (stereo unspecified)

**Result**
1. 26
2. 28
3. 2
4. -21

For each of the compounds below, note its growth inhibition.
1. N=C(N)c1ccc(N=Nc2c(O)ccc3c2[nH]c2ccccc23)cc1
2. O=C(CSS(=O)(=O)O)c1ccccc1
3. Cc1ccc(Cl)c2c(=O)c3ccccc3[nH]c12
4. CN(C)c1ccc(/C=C/c2ccnc3ccc4ccccc4c23)cc1
5. CC(C)c1ccc(C2NC(=S)NC3=C2c2ccccc2C3=O)cc1 (stereo unspecified)

**Result**
[19, -17, -5, -4, -25]

For each of the compounds below, note its growth inhibition.
1. S=C1NC2=C(CSC/C2=C\c2ccc(Cl)cc2)C(c2ccc(Cl)cc2)N1 (stereo unspecified)
2. O=C(Nn1c(-c2ccccc2)nc2ccccc2c1=O)c1ccc(Cl)cc1
3. Cc1c(N=Nc2ccc(Cl)cc2)c(C)n(C2OC(CO)C(O)C(O)C2O)c(=S)c1C#N (stereo unspecified)
4. CCCCOc1ccc(Nc2c3ccccc3nc3ccccc23)cc1
5. c1cncc(C(Nc2cccc3cccnc23)Nc2cccc3cccnc23)c1
6. Nc1nc(Nc2ccccc2)nc(Nc2ccccc2)n1
7. CC(C)(C)[Si](C)(C)OCC1OC(n2cnc3c(N)ncnc32)C2OC(=S)OC12 (stereo unspecified)
8. O=C(Cc1ccccc1F)NC1=C(Cl)C(=O)c2ccccc2C1=O

**Result**
1: -7; 2: -19; 3: 1; 4: 15; 5: -10; 6: -5; 7: -42; 8: -6

For each of the compounds below, note its growth inhibition.
1. O=C(O)CN(CCNC(=O)OCC1c2ccccc2-c2ccccc21)CCNC(=O)OCC1c2ccccc2-c2ccccc21
2. O=C(O)[C@H]1[C@@H](C2CCCCC2)O[C@@H](C2CCCCC2)O[C@H]1C(F)(F)F
3. Cc1cc(NCCCN(C)C)c2ccc3c(ccc4c(NCCCN(C)C)cc(C)nc43)c2n1
4. Cc1c2ccncc2c(C)c2c1oc1ccccc12

**Result**
-16
-20
1
27
